- study.system: T1, free soluble human E-selectin in human serum (human, UniProt P16581 22-556, limits assumed)
- T1 construct: also called endogenous human E-selectin
- T1 sequence (looked up): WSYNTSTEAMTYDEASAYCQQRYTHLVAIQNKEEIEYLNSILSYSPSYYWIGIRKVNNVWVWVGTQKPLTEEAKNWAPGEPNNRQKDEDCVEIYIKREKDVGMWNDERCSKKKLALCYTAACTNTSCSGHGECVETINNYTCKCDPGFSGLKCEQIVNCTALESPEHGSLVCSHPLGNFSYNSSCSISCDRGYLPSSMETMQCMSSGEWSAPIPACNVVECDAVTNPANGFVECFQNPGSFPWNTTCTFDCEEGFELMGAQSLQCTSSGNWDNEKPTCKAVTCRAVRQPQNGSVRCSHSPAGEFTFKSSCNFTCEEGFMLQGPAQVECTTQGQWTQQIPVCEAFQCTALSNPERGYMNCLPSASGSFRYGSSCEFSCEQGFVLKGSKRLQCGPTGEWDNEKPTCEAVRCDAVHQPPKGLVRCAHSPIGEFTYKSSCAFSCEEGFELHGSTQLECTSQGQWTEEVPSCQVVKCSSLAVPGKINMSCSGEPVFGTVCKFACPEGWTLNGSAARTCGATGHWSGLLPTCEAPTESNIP
- experiment.summary: IP-LC/MS/MS of free soluble E-selectin in human serum, capture by biotinylated 0164
Reported IC90 is given for each of the following binders.

| binder | IC90 [nM] |
| --- | --- |
| optimized anti-E-selectin antibody 1448 (antibody, human IgG1, kappa, V domains shown, effector-null human IgG1, kappa) VH: EVQLVESGGGLVQPGGSLRLSCAASGYAIRSAYMHWVRQAPGKGLEWVARIDPANGNTIYVDSVKERFTISADNAKNSAYLQMNSLRAEDTAVYYCAMDLYSTSEYWGQGTLVTVSS VL: DIQMTQSPSSLSASVGDRVTITCKTSQNIERYLNWYQQKPGKAPKLLIYAASSLQSGVPSRFSGSGSGTDFTLTISSLQPEDFATYFCLQDNAWPLTFGQGTKVEIKR | 8.6 |
| optimized anti-E-selectin antibody 1282 (antibody, human IgG1, kappa, V domains shown, effector-null human IgG1, kappa) VH: EVQLVESGGGLVQPGGSLRLSCAASGYAIRSAYMHWVRQAPGKGLEWVARIDPANGNTIYVDSVEGRFTISADNAKNSAYLQMNSLRAEDTAVYYCAMDLYSTSEYWGQGTLVTVSS VL: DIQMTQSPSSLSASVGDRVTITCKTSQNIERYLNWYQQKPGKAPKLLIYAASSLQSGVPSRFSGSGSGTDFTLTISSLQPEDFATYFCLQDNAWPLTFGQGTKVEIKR | 4.9 |
| optimized anti-E-selectin antibody 1444 (antibody, human IgG1, kappa, V domains shown, effector-null human IgG1, kappa) VH: EVQLVESGGGLVQPGGSLRLSCAASGYAIRSAYMHWVRQAPGKGLEWVARIDPANGNTIYVDSVTGRFTISADNAKNSAYLQMNSLRAEDTAVYYCAMDLYSTSEYWGQGTLVTVSS VL: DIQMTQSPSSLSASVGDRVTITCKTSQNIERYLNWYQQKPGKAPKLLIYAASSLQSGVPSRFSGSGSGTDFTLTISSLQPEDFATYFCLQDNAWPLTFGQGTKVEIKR | 6.5 |
| optimized anti-E-selectin antibody 1284 (antibody, human IgG1, kappa, V domains shown, effector-null human IgG1, kappa) VH: EVQLVESGGGLVQPGGSLRLSCAASGYAIRSAYMHWVRQAPGKGLEWVARIDPANGNTIYVESVEGRFTISADNAKNSAYLQMNSLRAEDTAVYYCAMDLYSTSEYWGQGTLVTVSS VL: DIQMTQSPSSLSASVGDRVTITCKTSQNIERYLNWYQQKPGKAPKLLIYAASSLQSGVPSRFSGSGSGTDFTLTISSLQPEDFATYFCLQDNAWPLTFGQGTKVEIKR | 4.8 |

// provenance: patent US20240076386A1
